Attribution: PubChem BioAssay (NCI)

TGI values by entry
tested on: HOP-62 NSCLC; assay: NCI tumour cell line growth inhibition, 48 h

Completed entries (count: 3):
compound	experimentalTarget	TGI
Cc1c2ccccc2c(C)c2c3c(ccc12)C(=O)C=CC3=O	HOP-62 NSCLC	> 90.9 µM
NC(=O)c1ccccc1NC(=O)C(=O)C(C(=O)c1ccc2ccccc2c1)C1OC(=O)c2ccccc21 (centres undefined)	HOP-62 NSCLC	24.2 µM
Cc1ccnc(NS(=O)(=O)c2ccc(NC(=O)c3ccc4nc5ccccc5c(Nc5ccc(S(=O)(=O)Nc6nccc(C)n6)cc5)c4c3)cc2)n1	HOP-62 NSCLC	> 100 µM

Using known records, supply TGI for `O=c1oc2ncccc2n1Cc1ccc([N+](=O)[O-])cc1`
> 100 µM

Tell us which TGI value is on record for `COc1ccc(Nc2c3ccccc3nc3c2c2ccccc2n3C)cc1`
> 100 µM

Determine from records and report TGI for COC(=O)C12CCC(C(=O)OC)(Cc3c(c4ccccc4n3S(=O)(=O)c3ccccc3)C1)C2=O (centres undefined)
> 100 µM

Note TGI for the compound shown: CC(=O)OC1C=CC2CCN3C(=O)c4cc5c(cc4[C@H]1C23)OCO5 (some centres undefined)
> 100 µM

State its TGI: `CCCCCCc1nn2c(-c3ccc(C)cc3)nnc2s1`
> 100 µM

Quick one: give measured TGI for `C=C1c2nc3ccccc3n2C=C(c2ccc(Cl)cc2)N1c1ccc(OCCN2CCOCC2)cc1`
> 100 µM

Name the recorded TGI of the item `N#Cc1ccc(Oc2nccc(-c3c(-c4ccc(F)cc4)ncn3C3CCNCC3)n2)cc1` in your answer.
> 25 µM

Return value of TGI for input `O=C(CC(=O)c1ccncc1)c1ccccc1` , no commentary.
> 100 µM

Hello, please tell me recorded TGI for this one: `CC(C)OP(=O)(OC(C)C)C(C(F)(F)F)C(F)(F)F`
> 100 µM

State, in one line, measured TGI of CSCCC(NC(=O)C(Cc1ccccc1)NC(=O)CNC(=O)CNC(=O)C(N)Cc1ccc(O)cc1)C(=O)O (centres undefined)
> 100 µM

Specify measured TGI for C[N+](C)(C)CCOP(=O)(O)OP(=O)([O-])OCC1CCC(n2ccc(N)nc2=O)O1 (centres undefined) .
> 100 µM

Identify the reported TGI for the following entry. `Cn1cc(-c2csc(-c3c[nH]c4ncccc34)n2)c2cc(Br)cnc21`
11.6 µM

Could you please provide reported TGI for `CCCCCCCCCCCCCCCCOC(=O)C(C(=O)OCCCCCCCCCCCCCCCC)[N+](C)(C)CCOC(C)=O` ? Thanks!
25.8 µM

Answer with the recorded TGI for the compound listed here: `Cn1c(-c2ccccc2)cc(-c2ccc3c(c2)OCO3)c1-c1cccs1`
> 100 µM

Please report TGI for the following compound: `Nc1nc(N)c2cc(CNc3ccc(Cl)c(Cl)c3)ccc2n1`
2.05 µM

// fetch TGI given entry `N/C(=N\O)c1ncc(-c2ccc(C(F)(F)F)cc2)c(NC2CCCCCC2)n1`
23.2 µM
